Below, each of the variants is paired with its reported yeast fitness value.
B1: tRNA (parent)
chain: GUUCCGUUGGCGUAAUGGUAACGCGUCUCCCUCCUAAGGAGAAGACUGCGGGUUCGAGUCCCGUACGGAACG

Variants of: B1
experiment: yeast fitness relative to wild type (ratio to wild type); higher = fitter; tRNA-Arg(CCU), competitive growth, 37 C, YPD
This sample holds only a part of the variants without activity.
Form rule: numeric answer, no unit written next to it.

Worked cases, yeast fitness given:
{"columns": ["seq-string", "yeast fitness"],
 "data": [
  ["GUUCCCUUGGCGUAUUGGUAACCCGUCUCCGUCCUAAGGACAAGACUCCGGGUUCGAGUCCCGUACGGUACG [G6C A15U G23C C31G G41C G48C A69U]", 0.562],
  ["GUUCCGUUGGCGUAAUGGUAACGCGUCUCCCUACUACGGAGAAGACUGCGGGUUCGAGUCUAGUACGGAACG [C33A A37C C61U C62A]", 0.635]
]}

Return reported yeast fitness. Input variant: GUUCCGAUGGCGUAAUGGUAACGCUUCUCCCACCUAAGGAAAAGACUGCGGGUUCGAGUCUCGUACGGAACG [U7A G25U U32A G41A C61U]
0.589

Return reported yeast fitness. Input variant: GUUCCGUUGACGUAAUGGUAACGCGUCUCCCUCCUAAGGAGAAGACUACGGGUUCGAGUCCCGUACGGAACG [G10A G48A]
0.636

Return reported yeast fitness. Input variant: GUUCCGUUGGCGUAAUAGUAACGCGUCUCGCUCCUAAGGGGAAGACUGCGGGUUCGAGUACCGUACGGAACG [G17A C30G A40G C60A]
0.678
